System: A673/TR/shEF
assay details: cell viability (LOESS-normalised, relative to median of negative controls) (log2 ratio); higher = more viable cells (less compound effect), active = hit call of the paper (over 3 MAD below the median)
setup conditions: 0.25 µM; library screen: screen1; EWS-FLI1 expression: high (no doxycycline); treatment time: 72 h
Screen size: about 3,200 compounds; about 300 (9.4%) showed activity. This is one part of a sample in which actives are shown more often than they occur.
Documented cell viability (log2) across a set of molecules

>  <molecule>
C=CC(C)(C)c1c2c(c(O)c3c(=O)c4ccc(O)c(O)c4oc13)C=CC(C)(C)O2

>  <cell viability (log2)>
-0.0194

$$$$
>  <molecule>
COC(=O)C[C@H]1C(C)(C)[C@@H](OC(C)=O)[C@@H]2CC3=C4CC(=O)O[C@@H](c5ccoc5)[C@]4(C)CC[C@@H]3[C@@]1(C)C2=O

>  <cell viability (log2)>
0.0358

$$$$
>  <molecule>
CC(=O)Oc1ccc(O)cc1

>  <cell viability (log2)>
-0.0255

$$$$
>  <molecule>
CC12CCC3c4ccc(OCc5ccccc5)cc4CCC3C1C[C@@H](O)[C@@H]2O (some centres undefined)

>  <cell viability (log2)>
0.0858

$$$$
>  <molecule>
COCCCN1C(=O)C(=Cc2sccc2C)SC1=S

>  <cell viability (log2)>
0.112

$$$$
>  <molecule>
CCN(CC)C(=S)SSC(=S)N(CC)CC

>  <cell viability (log2)>
-1.42

$$$$
>  <molecule>
C=CC1=C(C)/C(=C/c2[nH]c(Cc3[nH]c(/C=C4\NC(=O)C(C)=C4C=C)c(C)c3CCC(=O)O)c(CCC(=O)O)c2C)NC1=O

>  <cell viability (log2)>
0.0132

$$$$
>  <molecule>
CC[C@H](CC[C@@H](C)[C@H]1CC[C@H]2[C@@H]3CC=C4C[C@@H](OC(C)=O)CC[C@]4(C)[C@H]3CC[C@]12C)C(C)C

>  <cell viability (log2)>
0.121

$$$$
>  <molecule>
CCOc1ccc2nc(SC)nc(C)c2c1

>  <cell viability (log2)>
0.0636

$$$$

* * *

Test system: A673/TR/shEF
assay details: cell viability (LOESS-normalised, relative to median of negative controls) (log2 ratio); higher = more viable cells (less compound effect), active = hit call of the paper (over 3 MAD below the median)
setup conditions: 0.25 µM; library screen: screen1; EWS-FLI1 expression: low (doxycycline-induced shRNA knockdown); treatment time: 72 h
Hit rate of the full screen: of about 3,200 compounds, about 300 (9.4%) showed activity. The list comes from a sample in which actives are over-represented; it also holds close analogues and randomly drawn compounds.
Documented cell viability (log2) across a set of compounds

>  <compound>
Cc1ccc(S(=O)(=O)/C=C/C#N)cc1

>  <test target>
A673/TR/shEF

>  <cell viability (log2)>
0.0518

$$$$
>  <compound>
N#C/C(=C\c1ccc(O)c(O)c1)C(=O)NCc1ccccc1

>  <test target>
A673/TR/shEF

>  <cell viability (log2)>
0.104

$$$$
>  <compound>
O=C1c2cccc(O)c2C(=O)c2c(O)cccc21

>  <test target>
A673/TR/shEF

>  <cell viability (log2)>
0.109

$$$$
>  <compound>
N#C/C(=C\c1cccc(Cl)c1)c1nc2ccccc2[nH]1

>  <test target>
A673/TR/shEF

>  <cell viability (log2)>
0.256

$$$$
>  <compound>
OC[C@H]1O[C@@](CO)(O[C@H]2O[C@H](CO)[C@@H](O)[C@H](O)[C@H]2O)[C@@H](O[C@H]2O[C@H](CO)[C@@H](O)[C@H](O)[C@H]2O)[C@@H]1O

>  <test target>
A673/TR/shEF

>  <cell viability (log2)>
0.0415

$$$$
>  <compound>
CC1(C)C2CC(=O)[C@]3(C)C(CC[C@@]4(C)[C@H](C(=O)O)OC(=O)C5OC543)[C@@]2(C)[C@@H](O)C[C@H]1O (stereo not given in full)

>  <test target>
A673/TR/shEF

>  <cell viability (log2)>
0.0574

$$$$
>  <compound>
CCN(CC)c1ccc(C2C(C(=O)OC)=C(C)NC(C)=C2C(=O)OC)cc1

>  <test target>
A673/TR/shEF

>  <cell viability (log2)>
0.087

$$$$
>  <compound>
CC(=O)OC(CC(=O)[O-])C[N+](C)(C)C (stereo not given)

>  <test target>
A673/TR/shEF

>  <cell viability (log2)>
0.0665

$$$$
>  <compound>
COC1=CC(=O)OC(CCc2ccc(OC)c(OC)c2)C1 (stereo not given)

>  <test target>
A673/TR/shEF

>  <cell viability (log2)>
-0.00163

$$$$
>  <compound>
CC(C)=CCC/C(C)=C/CC/C(C)=C/CO

>  <test target>
A673/TR/shEF

>  <cell viability (log2)>
0.0866

$$$$
>  <compound>
O=C(O)CCC(=O)OCC(NC(=O)C(Cl)Cl)C(O)c1ccc([N+](=O)[O-])cc1 (stereo not given)

>  <test target>
A673/TR/shEF

>  <cell viability (log2)>
0.0474

$$$$
>  <compound>
CC(C)c1cc(/C=C(\C#N)C(=O)NCCCc2ccccc2)cc(C(C)C)c1O

>  <test target>
A673/TR/shEF

>  <cell viability (log2)>
-0.0227

$$$$
>  <compound>
N#C/C(=C\c1ccc(O)c(O)c1)C(=O)Nc1ccccc1

>  <test target>
A673/TR/shEF

>  <cell viability (log2)>
0.0428

$$$$
>  <compound>
COC(=O)[C@@H]1OC(=O)C2OC23[C@@]1(C)CCC1[C@@]2(C)CCC(=O)C(C)(C)C2C[C@@H](OC(C)=O)[C@]13C (stereo not given in full)

>  <test target>
A673/TR/shEF

>  <cell viability (log2)>
0.00682

$$$$
>  <compound>
O=C1c2c(O)ccc(O)c2C(=O)c2c(NCCNCCO)ccc(NCCNCCO)c21

>  <test target>
A673/TR/shEF

>  <cell viability (log2)>
-0.576

$$$$
>  <compound>
O=C1c2ccc(O)c(O)c2C(=O)c2c(O)ccc(O)c21

>  <test target>
A673/TR/shEF

>  <cell viability (log2)>
0.0878

$$$$
>  <compound>
CC(=O)c1cc2c(cc1O)OC(C)(C)C=C2

>  <test target>
A673/TR/shEF

>  <cell viability (log2)>
-0.0151

$$$$
>  <compound>
O=C(O)c1cc([N+](=O)[O-])ccc1NCCCc1ccccc1

>  <test target>
A673/TR/shEF

>  <cell viability (log2)>
0.0513

$$$$
>  <compound>
C=C1CCC(=O)C(C)CCC2C1CC2(C)C (stereo not given)

>  <test target>
A673/TR/shEF

>  <cell viability (log2)>
-0.00925

$$$$
>  <compound>
CC(=O)Oc1cc2c(c(C)c1OC(C)=O)CC=C1[C@@]2(C)CC[C@@]2(C)[C@@H]3C[C@](C)(C(=O)O)CC[C@]3(C)CC[C@]12C

>  <test target>
A673/TR/shEF

>  <cell viability (log2)>
0.000386

$$$$

* * *

System: A673/TR/shEF
assay details: cell viability (LOESS-normalised, relative to median of negative controls) (log2 ratio); higher = more viable cells (less compound effect), active = hit call of the paper (over 3 MAD below the median)
setup conditions: 2.5 µM; library screen: screen2; EWS-FLI1 expression: low (doxycycline-induced shRNA knockdown); treatment time: 72 h
The campaign covered roughly 3,200 compounds. About 300 (9.4%) showed activity. What follows is part of a selection rich in actives, with near analogues and random picks from the rest.
Outcomes: active, inactive

>  <molecule>
CCN(CC)CCNC(=O)c1ccc(N)cc1

>  <class label>
inactive

$$$$
>  <molecule>
COC(=O)Nc1nc2ccc(C(=O)c3ccccc3)cc2[nH]1

>  <class label>
active

$$$$
>  <molecule>
O=c1[nH]c(=O)n([C@H]2C[C@H](O)[C@@H](CO)O2)cc1/C=C/Br

>  <class label>
inactive

$$$$
>  <molecule>
CN(C)CC/C=C1\c2ccccc2COc2ccccc21

>  <class label>
inactive

$$$$
>  <molecule>
NC(N)=NCCSSCCN=C(N)N

>  <class label>
inactive

$$$$
>  <molecule>
CN(C)CCC=C1c2ccccc2CCc2ccccc21

>  <class label>
inactive

$$$$
>  <molecule>
CCc1cn([C@H]2C[C@H](O)[C@@H](CO)O2)c(=O)[nH]c1=O

>  <class label>
inactive

$$$$
>  <molecule>
COC(=O)Nc1nc2ccc(Sc3ccccc3)cc2[nH]1

>  <class label>
inactive

$$$$
>  <molecule>
CN(Cc1cnc2nc(N)nc(N)c2n1)c1ccc(C(=O)N[C@H](CCC(=O)O)C(=O)O)cc1

>  <class label>
inactive

$$$$
>  <molecule>
CSc1nc(N)c2ncn(C3OC(COP(=O)(O)OP(=O)(O)O)C(O)C3O)c2n1 (stereo not drawn)

>  <class label>
inactive

$$$$
>  <molecule>
O=C1Cc2c([nH]c3ccc(Br)cc23)-c2ccccc2N1

>  <class label>
inactive

$$$$
>  <molecule>
CC(C)C[C@H](NC(=O)[C@@H](O)[C@H](N)Cc1ccccc1)C(=O)O

>  <class label>
inactive

$$$$
>  <molecule>
O=S(=O)(c1cccc2cnccc12)N1CCNCC1

>  <class label>
inactive

$$$$
>  <molecule>
COc1ccc(CCN(C)CCc2ccc(OC)c(OC)c2)cc1OC

>  <class label>
inactive

$$$$
>  <molecule>
NCCCCCCNS(=O)(=O)c1cccc2c(Cl)cccc12

>  <class label>
inactive

$$$$
>  <molecule>
NC(CCC(=O)NCS(=O)(=O)O)C(=O)O (stereo not drawn)

>  <class label>
inactive

$$$$
>  <molecule>
CC(C(=O)O)c1cccc(C(=O)c2ccccc2)c1 (stereo not drawn)

>  <class label>
inactive

$$$$
>  <molecule>
CCCCCN(CCCCC)C(=O)C(CCC(=O)O)NC(=O)c1ccc(Cl)c(Cl)c1 (stereo not drawn)

>  <class label>
inactive

$$$$
>  <molecule>
S=c1nc[nH]c2nc[nH]c12

>  <class label>
inactive

$$$$
>  <molecule>
Cc1c(OCC(F)(F)F)ccnc1C[S+]([O-])c1nc2ccccc2[nH]1 (stereo not drawn)

>  <class label>
inactive

$$$$
>  <molecule>
CC(C)CC(NP(=O)(O)O[C@@H]1O[C@@H](C)[C@H](O)[C@@H](O)[C@H]1O)C(=O)NC(Cc1c[nH]c2ccccc12)C(=O)O (stereo partly drawn)

>  <class label>
inactive

$$$$
>  <molecule>
CC(/C=C/C=C(\C)c1cc(C(C)(C)C)cc(C(C)(C)C)c1)=C\C(=O)O

>  <class label>
inactive

$$$$
>  <molecule>
O=c1[nH]c(=O)n([C@H]2C[C@H](O)[C@@H](CO)O2)cc1F

>  <class label>
inactive

$$$$
>  <molecule>
CCCCC1C(=O)N(c2ccccc2)N(c2ccccc2)C1=O

>  <class label>
inactive

$$$$
>  <molecule>
CN1/C(=C(\O)Nc2ccccn2)C(=O)c2ccccc2S1(=O)=O

>  <class label>
inactive

$$$$
>  <molecule>
CN1C(=O)CCC1c1cccnc1 (stereo not drawn)

>  <class label>
inactive

$$$$
>  <molecule>
CC(=O)O[C@H]1C(=O)[C@@]2(C)[C@H]([C@H](OC(=O)c3ccccc3)[C@]3(O)C[C@H](OC(=O)[C@H](O)[C@@H](NC(=O)c4ccccc4)c4ccccc4)C(C)=C1C3(C)C)[C@]1(OC(C)=O)CO[C@@H]1C[C@@H]2O

>  <class label>
active

$$$$
>  <molecule>
CCCCN1CCC(COC(=O)c2cc(Cl)c(N)c3c2OCCO3)CC1

>  <class label>
inactive

$$$$
>  <molecule>
O=S(=O)(c1cccc2c(Cl)cccc12)N1CCCNCC1

>  <class label>
inactive

$$$$
>  <molecule>
Cc1ccccc1N1CCN(S(=O)(=O)C[C@]23CCC(CC2NC(=O)[C@@H](N)CCS(C)(=O)=O)C3(C)C)CC1 (stereo partly drawn)

>  <class label>
inactive

$$$$
>  <molecule>
COc1ccc(CCNCC(O)c2ccc(O)cc2)cc1OC (stereo not drawn)

>  <class label>
active

$$$$
>  <molecule>
COC(=O)Nc1nc2ccc(C(=O)c3cccs3)cc2[nH]1

>  <class label>
active

$$$$
>  <molecule>
O=c1[nH]c(=O)n([C@H]2C[C@H](O)[C@@H](CO)O2)cc1Br

>  <class label>
inactive

$$$$
>  <molecule>
CC(=O)[C@]1(O)Cc2c(O)c3c(c(O)c2[C@@H](O[C@H]2C[C@H](N)[C@H](O)[C@H](C)O2)C1)C(=O)c1ccccc1C3=O

>  <class label>
active

$$$$
>  <molecule>
COc1cc2c(cc1O)CC[C@@H]1[C@@H]2CC[C@]2(C)[C@@H](O)CC[C@@H]12

>  <class label>
inactive

$$$$
>  <molecule>
CC(C)n1cnc2c(NCc3ccccc3)nc(NCCO)nc21

>  <class label>
inactive

$$$$
>  <molecule>
NCCCCNS(=O)(=O)c1cccc2c(Cl)cccc12

>  <class label>
inactive

$$$$
>  <molecule>
CCCCCCCCCCCCCCCCCC(=O)NCC(COP(=O)([O-])OCC[N+](C)(C)C)OCC (stereo not drawn)

>  <class label>
inactive

$$$$
>  <molecule>
Nc1nc(Nc2ccccc2)nc2c1ncn2C1O[C@H](CO)[C@@H](O)[C@H]1O (stereo partly drawn)

>  <class label>
inactive

$$$$
>  <molecule>
COc1cc(NC(C)CCCN)c2ncccc2c1 (stereo not drawn)

>  <class label>
inactive

$$$$
>  <molecule>
O=C(O)CCC(NC(=O)c1ccccc1C(=O)O)C(=O)O (stereo not drawn)

>  <class label>
inactive

$$$$
>  <molecule>
Nc1nc(=S)c2[nH]cnc2[nH]1

>  <class label>
inactive

$$$$
>  <molecule>
CCCCCCCCCCCCCCCCCC(=O)OC(CC(=O)O)C[N+](C)(C)C (stereo not drawn)

>  <class label>
inactive

$$$$
